# tested-system: T1, human SIRPβ isoform 1 (human, UniProt O00241 30-148)
# T1 construct: also called SIRPb; sirpb1
# T1 sequence (O00241 30-148 limits assumed): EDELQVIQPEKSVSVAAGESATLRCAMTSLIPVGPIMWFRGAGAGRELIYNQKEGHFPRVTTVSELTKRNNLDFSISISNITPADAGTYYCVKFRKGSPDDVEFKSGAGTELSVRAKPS
# experimental-details: SPR, Langmuir fit
Field: koff. Provide a value for each of the binders that follow.
Your answer is read as s⁻¹, so omit the unit and give the number.

### Prompt // returns reported koff for input S17 (scFv, V domains shown, also called clone 17) VH: DVQLVESGGAVVRPGESLRLSCAASGFTFSSYAMSWVRQAPGKGLEWLAGISAGGSDTYYIDSVKGRFTISRDNSENSLYLQMNSLTAEDTAVYYCARETWNHLFDYWGLGTLVTVSS VL: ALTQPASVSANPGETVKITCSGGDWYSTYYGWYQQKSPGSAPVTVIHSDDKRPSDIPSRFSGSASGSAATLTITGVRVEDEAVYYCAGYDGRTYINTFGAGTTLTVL
### Response 0.000125

### Prompt Field request: koff | item: S74 (scFv, V domains shown, also called clone 74) VH: DVQLVESGGGVVRPGESLRLSCAASGFTFSSNAMSWVRQAPGKGLEWLAGISAGDSDTYYPASVKGRFTISRDNPKNTLYLQMNTLTAEDTAVYYCARETWNHLFDYWGLGTLVTVSS VL: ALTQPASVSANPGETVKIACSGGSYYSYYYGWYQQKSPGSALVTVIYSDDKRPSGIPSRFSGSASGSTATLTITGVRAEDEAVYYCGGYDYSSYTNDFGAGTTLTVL
### Response 0.000266

### Prompt Look at this binder and give its reported koff. S70 (scFv, V domains shown, also called clone 70) VH: DVQLVESGGGVVRPGESLRLSCAASGFTFSSYAMSWVRQAPGKGLEWLAGISAGGSDAYYIDSVKGRFTISRDNSKNSLYLQMNSLTAEDTAVYYCARETWNHLFDYWGLGTLVTVSS VL: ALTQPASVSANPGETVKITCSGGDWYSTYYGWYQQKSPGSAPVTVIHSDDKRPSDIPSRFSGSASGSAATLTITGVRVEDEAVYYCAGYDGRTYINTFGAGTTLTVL
### Response 0.000225
